Biological target: Muscarinic acetylcholine receptor M4 (Homo sapiens, UniProt P08173)
Sequence (P08173 whole entry): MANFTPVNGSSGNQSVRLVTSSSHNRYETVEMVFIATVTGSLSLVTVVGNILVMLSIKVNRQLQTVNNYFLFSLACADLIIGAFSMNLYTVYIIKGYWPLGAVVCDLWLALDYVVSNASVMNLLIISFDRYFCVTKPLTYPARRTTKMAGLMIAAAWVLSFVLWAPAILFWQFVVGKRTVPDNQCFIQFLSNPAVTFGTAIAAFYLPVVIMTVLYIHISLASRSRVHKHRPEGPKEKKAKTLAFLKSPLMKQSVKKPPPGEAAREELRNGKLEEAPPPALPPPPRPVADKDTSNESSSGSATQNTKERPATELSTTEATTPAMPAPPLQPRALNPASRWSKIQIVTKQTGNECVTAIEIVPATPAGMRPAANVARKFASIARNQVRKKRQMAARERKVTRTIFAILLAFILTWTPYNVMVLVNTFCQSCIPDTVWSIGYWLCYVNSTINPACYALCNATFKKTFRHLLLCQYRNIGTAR
This section presents compounds with their documented Ki values.
TEST READOUT: Ki (nM)

STRUCTURE AS SMILES: CCC(=O)NCCNC(=O)CCc1cn(CCCCC2CCN(CC(=O)N3c4ccccc4NC(=O)c4ccccc43)CC2)cn1
UNITS OF MEASURE: nM
ENDPOINT VALUE: 2.51
//
STRUCTURE AS SMILES: NCCN1CCN(CC(=O)NC2CCN(CC(=O)N3c4ccccc4NC(=O)c4ccccc43)CC2)CC1
UNITS OF MEASURE: nM
ENDPOINT VALUE: 25700
//
STRUCTURE AS SMILES: Nc1ccccc1C(=O)N1CCC(N2CCC(Cc3ccc(S(=O)(=O)c4cccc(Cl)c4)cc3)CC2)CC1
UNITS OF MEASURE: nM
ENDPOINT VALUE: 91.2
//
STRUCTURE AS SMILES: N=C(N)NCCC[C@@H](N)C(=O)NCCN1CCN(CCCCC2CCN(CC(=O)N3c4ccccc4NC(=O)c4ccccc43)CC2)CC1
UNITS OF MEASURE: nM
ENDPOINT VALUE: 1.82

The origin of these recorded values is ChEMBL document CHEMBL4813954.
